Experiment: protein stability index of a GFP-peptide fusion (yeast GPS) (PSI 1-4); higher = more stable; sorted into four equal gates, so the index is relative within each strain
Conditions: ubr1∆
# protein stability index listing for each entry below
Reply with just the number.

Take a look at these entries with their results.
INSERT INTO measurements (residue_codes, parameter, value_measured) VALUES
  ('RQKINGCEANIHSLVKQ [YIL149C/MLP2]', 'protein stability index', 2.79),
  ('PEYGRIIASASYDKTVK [YGL100W/SEH1]', 'protein stability index', 2.11),
  ('SSVKTCFKPMSLTSKRL [RIP1]', 'protein stability index', 2.62),
  ('GKISKPRFLNKQERSKQ [PRP28]', 'protein stability index', 2.13),
  ('QQLLPAPQLFPYGSFHQ [DSN1]', 'protein stability index', 3.04);

QUERY: Return protein stability index (reported value) for this sequence: SSPDTMKLTDLLSLINS [SNF12]
RESULT: 2.67
